- Test system: SK-OV-3 ovarian
- Assay Explanation: NCI tumour cell line growth inhibition, 48 h
Recorded TGI, one value per entry.

Ask: Write TGI of COc1cc2ccc3c4c(OC)cc(OC)c(OC)c4c(=O)n(C)c3c2cc1OC ; system used: SK-OV-3 ovarian
Result: > 47.8 µM

Ask: Write TGI of CCOC(=O)c1ccc(N(CCOS(C)(=O)=O)CCOS(C)(=O)=O)cc1C ; system used: SK-OV-3 ovarian
Result: > 100 µM

Ask: Write TGI of CCC(C)OC(=O)C1C2CCC(O2)C1C(=O)O (stereo unspecified) ; system used: SK-OV-3 ovarian
Result: > 100 µM

Ask: Write TGI of CCCCCCCC/C=C/CCCCCCCC1=NC(C)(C)CN1C(C)C ; system used: SK-OV-3 ovarian
Result: 2.59 µM

Ask: Write TGI of Cn1c(=O)[nH]c2[nH]c3ccccc3c2c1=O ; system used: SK-OV-3 ovarian
Result: > 100 µM

###

- Test system: SK-MEL-28 melanoma
Please answer using one outcome listed in TRUE = active, FALSE = inactive

* C#CCN=C(N/N=C/c1ccc([N+](=O)[O-])o1)NS(=O)(=O)c1cc(C)c(Cl)cc1SCC(N)=O | FALSE
* O=C1c2cc3c(cc2-c2c1c1ccc(Cl)cc1c(=O)n2C[C@H](O)[C@@H](O)[C@H](O)CO)OCO3 | TRUE
* NC1=C(Cl)C(=O)c2ccc(S(N)(=O)=O)cc2C1=O | TRUE
* CCOC(=O)/C(=C/c1ccc([N+](=O)[O-])cc1)C(=O)c1ccccc1 | FALSE

Okay, now this compound:
Ask: GET /call?item= COc1cc2ccc3c4c(OC)cc(OC)c(OC)c4c(=O)n(C)c3c2cc1OC returns the recorded outcome of this test.
Result: FALSE

###

- Test system: NCI/ADR-RES ovarian
- Assay Explanation: NCI tumour cell line growth inhibition, 48 h
Endpoint Label: TGI (µM)
Express the result in µM but write the number alone.

Worked set:
* CN(/N=C/c1cccs1)c1ccc(Cl)cc1[N+](=O)[O-] | 66.7
* CN(C)CCn1c(=O)c2ccc3c4c(nn3CCN(C)C)c3cc(N)ccc3n(c1=O)c24 | 0.749

Next, consider the following molecule.
Ask: Write TGI of CCOC(=O)c1c(C)nc2ccc(Cl)cc2c1-c1ccccc1 ; system used: NCI/ADR-RES ovarian
Result: 80.2

###

- System: OVCAR-3 ovarian
- Assay Explanation: NCI tumour cell line growth inhibition, 48 h
Endpoint Label: TGI

Worked set:
* O=c1[nH]c(-c2cccc(F)c2)nc2ccccc12 | > 100 µM
* N=C(N)c1ccc(-c2ccc(-c3ccc(Cl)cc3)o2)o1 | 3.43 µM
* COc1ccc(-c2cc(=O)c3c(OC)c(OC)c(OC)c(OC)c3o2)cc1OC | > 100 µM

Ask: Report TGI for Clc1ccc(Nc2nc(Cl)c3[nH]cnc3n2)cc1Cl
Result: 61 µM

Ask: Report TGI for Nc1ncnc(NC2C=C(CO)C(O)C2O)c1[N+](=O)[O-] (stereo unspecified)
Result: > 100 µM

Ask: Report TGI for CN(C)CCCN(c1nc(C(Cl)(Cl)Cl)ns1)c1nc(C(Cl)(Cl)Cl)ns1
Result: 4.09 µM

Ask: Report TGI for Cn1c(=O)c2c(no[n+]2[O-])n(C)c1=O
Result: > 100 µM

Ask: Report TGI for COC(=O)C1C(O)CCC2CN3CCc4c([nH]c5cccc(OC)c45)C3CC21 (stereo unspecified)
Result: > 100 µM

Ask: Report TGI for C[C@]12CCC(=O)C=C1CC[C@@H]1[C@@H]2[C@@H](O)C[C@@]2(C)[C@H]1CC[C@]2(O)C(=O)CO
Result: > 100 µM

Ask: Report TGI for COc1ccc(N=C2C(=O)C3=C(OC(C)(C)CC3)c3ccccc32)cc1
Result: 1.5 µM

Ask: Report TGI for COc1ccc(-c2c(C#N)c(-c3ccc(C)cc3)n(NS(=O)(=O)c3ccccc3)c(=O)c2C#N)cc1
Result: > 100 µM

Ask: Report TGI for COC(=O)C(C(=O)C(=O)NC1=C(Cl)C(=O)c2ccccc2C1=O)c1csc(-n2nc(-c3ccccc3)cc2-c2ccccc2)n1 (stereo unspecified)
Result: > 100 µM

Ask: Report TGI for COc1ccc2c(c1)CCc1c(-c3noc4c3CCc3cc(OC)ccc3-4)noc1-2
Result: > 100 µM

Ask: Report TGI for O=[n+]1c2c(n([O-])c3ccccc31)-c1cccc3cccc-2c13
Result: > 100 µM

Reference for the values: PubChem BioAssay (NCI)
